Consider the following compounds; for each one, report its log10 Ki.
# targetDesc: Epidermal growth factor receptor (Homo sapiens)
# assayProtocol: Inhibition of recombinant human GST-tagged wild-type EGFR expressed in baculovirus infected Sf9 insect cells using poly (Glu,Tyr) 4:1 as substrate after 60 mins in presence of [gamma33P]ATP by scintillation counting method
Response schema: value (number) is log10 of Ki in units of nM.

Completed entries (count: 6):
molecularString: O=[N+]([O-])c1ccc2oc3nccc(NCc4cccc(Br)c4)c3c2c1
log10 Ki: 2.83
//
molecularString: Nc1cccc(CNc2ccnc3oc4ccc([N+](=O)[O-])cc4c23)c1
log10 Ki: 3.56
//
molecularString: Nc1ccc2oc3nccc(NCc4cccc(Br)c4)c3c2c1
log10 Ki: 2.36
//
molecularString: O=[N+]([O-])c1ccc2[nH]c3nccc(NCc4cccc(Br)c4)c3c2c1
log10 Ki: 2.04
//
molecularString: Nc1ccc2oc3nccc(NCc4cccc(Cl)c4)c3c2c1
log10 Ki: 2.60
//
molecularString: COc1cccc(CNc2ccnc3oc4ccc([N+](=O)[O-])cc4c23)c1
log10 Ki: 3.44

State recorded log10 Ki for all listed compounds.
1. COc1cccc(CNc2ccnc3oc4ccc(N)cc4c23)c1
2. O=[N+]([O-])c1ccc2oc3nccc(NCc4cccc(Cl)c4)c3c2c1
3. O=[N+]([O-])c1ccc2[nH]c3nccc(NCc4cccc(Cl)c4)c3c2c1

// result
[2.23, 3.13, 1.90]

----------
# targetDesc: Epidermal growth factor receptor (Homo sapiens, UniProt P00533)
# Sequence (P00533 whole entry): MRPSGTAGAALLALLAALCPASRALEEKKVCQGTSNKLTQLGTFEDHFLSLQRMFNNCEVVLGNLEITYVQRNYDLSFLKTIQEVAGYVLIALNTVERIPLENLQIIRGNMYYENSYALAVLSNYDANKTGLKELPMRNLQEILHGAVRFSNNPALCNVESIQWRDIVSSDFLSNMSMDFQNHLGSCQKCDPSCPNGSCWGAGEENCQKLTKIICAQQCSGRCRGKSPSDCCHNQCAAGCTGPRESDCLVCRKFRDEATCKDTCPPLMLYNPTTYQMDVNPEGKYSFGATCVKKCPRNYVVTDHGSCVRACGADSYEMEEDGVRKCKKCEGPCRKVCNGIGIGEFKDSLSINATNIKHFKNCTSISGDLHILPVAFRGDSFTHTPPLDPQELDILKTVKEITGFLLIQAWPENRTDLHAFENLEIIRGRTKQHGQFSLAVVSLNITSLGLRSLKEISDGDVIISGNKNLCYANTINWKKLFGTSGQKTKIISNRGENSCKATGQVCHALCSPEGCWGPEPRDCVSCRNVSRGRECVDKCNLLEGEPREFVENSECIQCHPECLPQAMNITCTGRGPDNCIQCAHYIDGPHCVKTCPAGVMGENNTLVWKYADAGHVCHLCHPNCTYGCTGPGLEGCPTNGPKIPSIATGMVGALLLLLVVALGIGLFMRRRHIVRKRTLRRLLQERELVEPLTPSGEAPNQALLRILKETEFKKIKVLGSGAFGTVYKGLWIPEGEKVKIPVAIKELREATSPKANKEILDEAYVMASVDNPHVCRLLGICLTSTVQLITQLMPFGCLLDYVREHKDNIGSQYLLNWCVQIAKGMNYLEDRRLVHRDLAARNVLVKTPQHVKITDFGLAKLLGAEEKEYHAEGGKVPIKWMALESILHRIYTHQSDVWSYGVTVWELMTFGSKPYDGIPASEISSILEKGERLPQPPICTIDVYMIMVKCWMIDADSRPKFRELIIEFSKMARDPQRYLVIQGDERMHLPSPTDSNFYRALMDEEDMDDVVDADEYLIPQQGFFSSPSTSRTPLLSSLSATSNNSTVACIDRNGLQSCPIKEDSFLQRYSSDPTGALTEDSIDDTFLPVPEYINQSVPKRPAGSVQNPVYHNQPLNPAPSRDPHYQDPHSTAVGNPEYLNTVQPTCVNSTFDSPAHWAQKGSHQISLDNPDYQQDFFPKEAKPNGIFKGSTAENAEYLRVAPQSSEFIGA
# assayProtocol: Inhibition of recombinant human GST-tagged wild-type EGFR expressed in baculovirus infected Sf9 insect cells using poly (Glu,Tyr) 4:1 as substrate after 60 mins in presence of [gamma33P]ATP by scintillation counting method
For each record, write down the corresponding IC50.

molecularString: COc1ccc(CNc2ccnc3oc4ccc(N)cc4c23)cc1
targetDesc: Epidermal growth factor receptor (Homo sapiens, UniProt P00533)
IC50: > 1000 µM

# per-item lookup of IC50; items listed below
1. Nc1ccc2oc3nccc(NCc4ccc(Br)cc4)c3c2c1
2. Nc1ccc2oc3nccc(NCc4ccc(Cl)cc4)c3c2c1

// result
["> 1000 µM", "> 1000 µM"]

----------
# targetDesc: Insulin-like growth factor 1 receptor (Homo sapiens, UniProt P08069)
# Sequence (P08069 31-736 limits assumed): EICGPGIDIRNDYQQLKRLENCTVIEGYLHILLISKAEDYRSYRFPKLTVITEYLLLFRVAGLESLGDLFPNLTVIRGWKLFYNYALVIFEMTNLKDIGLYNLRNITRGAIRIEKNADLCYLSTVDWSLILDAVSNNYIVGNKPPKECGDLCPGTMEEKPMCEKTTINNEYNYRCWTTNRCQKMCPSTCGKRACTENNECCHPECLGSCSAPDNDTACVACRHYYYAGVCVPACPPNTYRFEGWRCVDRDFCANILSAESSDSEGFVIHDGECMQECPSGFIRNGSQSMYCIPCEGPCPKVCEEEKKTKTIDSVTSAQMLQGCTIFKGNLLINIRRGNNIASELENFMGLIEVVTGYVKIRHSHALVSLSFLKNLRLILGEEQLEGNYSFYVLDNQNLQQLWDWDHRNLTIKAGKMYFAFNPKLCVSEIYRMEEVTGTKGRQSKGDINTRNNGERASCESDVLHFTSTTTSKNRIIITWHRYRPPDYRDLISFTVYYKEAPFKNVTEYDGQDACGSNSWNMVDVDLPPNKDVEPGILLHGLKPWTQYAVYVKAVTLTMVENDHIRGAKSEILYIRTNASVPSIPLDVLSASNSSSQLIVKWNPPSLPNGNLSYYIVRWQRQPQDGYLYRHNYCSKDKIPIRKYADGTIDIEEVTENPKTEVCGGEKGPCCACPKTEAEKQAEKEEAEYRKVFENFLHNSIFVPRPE
# Sequence (P08069 741-1367 limits assumed): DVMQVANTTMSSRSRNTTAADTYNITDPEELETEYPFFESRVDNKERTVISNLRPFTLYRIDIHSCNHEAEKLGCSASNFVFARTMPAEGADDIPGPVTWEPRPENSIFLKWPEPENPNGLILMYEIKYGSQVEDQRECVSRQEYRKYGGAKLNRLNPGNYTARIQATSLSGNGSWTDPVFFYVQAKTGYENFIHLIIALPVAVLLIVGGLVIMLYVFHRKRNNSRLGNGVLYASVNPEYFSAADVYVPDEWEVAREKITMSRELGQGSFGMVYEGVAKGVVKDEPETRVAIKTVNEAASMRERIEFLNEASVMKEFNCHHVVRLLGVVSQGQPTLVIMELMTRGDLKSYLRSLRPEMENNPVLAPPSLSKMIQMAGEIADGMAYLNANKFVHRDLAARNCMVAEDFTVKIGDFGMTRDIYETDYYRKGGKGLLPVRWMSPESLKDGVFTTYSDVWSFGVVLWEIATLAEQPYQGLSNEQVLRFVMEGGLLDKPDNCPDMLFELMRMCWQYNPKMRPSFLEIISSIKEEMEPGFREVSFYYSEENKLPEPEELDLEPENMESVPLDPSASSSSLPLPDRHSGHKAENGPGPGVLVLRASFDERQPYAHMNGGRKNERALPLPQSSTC
# assayProtocol: Inhibition of recombinant human GST-tagged IGF1R expressed in baculovirus infected Sf9 insect cells using poly (Glu,Tyr) 4:1 as substrate after 60 mins in presence of [gamma33P]ATP by scintillation counting method
Criterion: Ki strictly under 5 µM. Met: true. Not met: false.

molecularString: Nc1ccc2[nH]c3nccc(NCc4cccc(Cl)c4)c3c2c1
class: true

// query Is Ki strictly under 5 µM for the entry Nc1ccc2[nH]c3nccc(NCc4cccc(Br)c4)c3c2c1 ?
// result true

// query Dear reviewer, please state whether Nc1ccc2oc3nccc(NCc4cccc(Cl)c4)c3c2c1 has Ki strictly beneath 5 µM.
// result true

// query Does the reported Ki of the following molecule sit strictly below 5 µM? COc1cccc(CNc2ccnc3oc4ccc([N+](=O)[O-])cc4c23)c1
// result true

// query State whether 5 µM exceeds Ki recorded for Nc1cccc(CNc2ccnc3oc4ccc([N+](=O)[O-])cc4c23)c1 .
// result false

// query Determine whether this molecule shows Ki lower than 5 µM (ties excluded): O=[N+]([O-])c1ccc2oc3nccc(NCc4ccc(Cl)cc4)c3c2c1
// result true
